- assay-comment: Test compounds' PK assay in ICR mice
- Type: in vivo
- conditions: mouse, plasma; ICR mice, po, 5 mg/kg
This section presents compounds with their documented half-life values.
measurement-label: half-life (h)

| compound | measurement-label | unit-text | value |
| --- | --- | --- | --- |
| CCOC(=O)C1=C(CN2CC(F)C(C)(C)C2CCC(=O)O)NC(c2nccs2)=N[C@H]1c1ccc(F)cc1Br (stereo partly shown) | half-life | h | 2.21 |
| CCOC(=O)C1=C(CN2CC(F)(F)C[C@H]2C(C)CC(=O)O)NC(c2nccs2)=N[C@H]1c1ccc(F)cc1Br (stereo partly shown) | half-life | h | 1.06 |
| CCOC(=O)C1=C(CN2CC(F)(F)C[C@H]2CCC(=O)O)NC(c2nccs2)=N[C@H]1c1ccc(F)cc1Br | half-life | h | 3.14 |
| CCOC(=O)C1=C(CN2CC(F)(F)C[C@H]2CC(C)C(=O)O)NC(c2nccs2)=N[C@H]1c1ccc(F)cc1Br (stereo partly shown) | half-life | h | 1.05 |

----------
- assay-comment: Test compounds' PK assay in ICR mice
- Type: in vivo
- conditions: ICR mice, po 5 mg/kg vs iv 2 mg/kg, calculated by the AUClast

| compound | F [%] |
| --- | --- |
| CCOC(=O)C1=C(CN2CC(F)C(C)(C)C2CCC(=O)O)NC(c2nccs2)=N[C@H]1c1ccc(F)cc1Br (stereo partly shown) [Example 39] | 86.1 |
| CCOC(=O)C1=C(CN2CC(F)(F)C[C@H]2CCC(=O)O)NC(c2nccs2)=N[C@H]1c1ccc(F)cc1Br [Example 6] | 59.3 |
| CCOC(=O)C1=C(CN2CC(F)(F)C[C@H]2CC(C)C(=O)O)NC(c2nccs2)=N[C@H]1c1ccc(F)cc1Br (stereo partly shown) [Example 8] | 69.3 |
| CCOC(=O)C1=C(CN2CC(F)(F)C[C@H]2C(C)CC(=O)O)NC(c2nccs2)=N[C@H]1c1ccc(F)cc1Br (stereo partly shown) [Example 9] | 60.2 |

----------
- assay-comment: Test compounds' PK assay in ICR mice
- Format: in vivo
- conditions: mouse, plasma; ICR mice, iv, 2 mg/kg, AUC in 0 hour to infinite time
measurement-label: AUC(0-inf) (µg·h/mL)

| molecule | value |
| --- | --- |
| CCOC(=O)C1=C(CN2CC(F)(F)C[C@H]2CC(C)C(=O)O)NC(c2nccs2)=N[C@H]1c1ccc(F)cc1Br (stereo partly shown) [Example 8] | 2.87 |
| CCOC(=O)C1=C(CN2CC(F)C(C)(C)C2CCC(=O)O)NC(c2nccs2)=N[C@H]1c1ccc(F)cc1Br (stereo partly shown) [Example 39] | 5.81 |
| CCOC(=O)C1=C(CN2CC(F)(F)C[C@H]2C(C)CC(=O)O)NC(c2nccs2)=N[C@H]1c1ccc(F)cc1Br (stereo partly shown) [Example 9] | 3.24 |
| CCOC(=O)C1=C(CN2CC(F)(F)C[C@H]2CCC(=O)O)NC(c2nccs2)=N[C@H]1c1ccc(F)cc1Br [Example 6] | 3.27 |

----------
This section presents compounds with their documented Tmax values.
- assay-comment: Test compounds' PK assay in ICR mice
- Format: in vivo
- conditions: mouse, plasma; ICR mice, po, 5 mg/kg; read-out: Tmax

| compound | Tmax / min |
| --- | --- |
| CCOC(=O)C1=C(CN2CC(F)(F)C[C@H]2CC(C)C(=O)O)NC(c2nccs2)=N[C@H]1c1ccc(F)cc1Br (stereo partly shown) | 15 |
| CCOC(=O)C1=C(CN2CC(F)C(C)(C)C2CCC(=O)O)NC(c2nccs2)=N[C@H]1c1ccc(F)cc1Br (stereo partly shown) | 30 |
| CCOC(=O)C1=C(CN2CC(F)(F)C[C@H]2C(C)CC(=O)O)NC(c2nccs2)=N[C@H]1c1ccc(F)cc1Br (stereo partly shown) | 15 |
| CCOC(=O)C1=C(CN2CC(F)(F)C[C@H]2CCC(=O)O)NC(c2nccs2)=N[C@H]1c1ccc(F)cc1Br | 15 |

----------
- assay-comment: Test compounds' PK assay in ICR mice
- Type: in vivo
- conditions: mouse, plasma; ICR mice, po, 5 mg/kg, AUC in 0-24 hours
- Experimental: The test compounds were poured into ICR mice stomach through mouth with 10 mg/kg or 5 mg/kg, or administered 2 mg/kg to ICR mice by tail-intravenous injection. Blood sample of orbital vein was taken at 0.083, 0.25, 0.5, 1, 2, 4, 6, 8 and 24 hours after administration, and collected in anticoagulation tube added with EDTA-K2. […] Quantitation was performed using multiple reaction monitoring (MRM). Pharmacokinetic parameters were calculated using WinNonlin 6.3 software with non compartment model.
This section presents compounds with their documented AUC(0-t) values.

| compound | AUC(0-t), ng·h/mL |
| --- | --- |
| CCOC(=O)C1=C(CN2CC(F)(F)C[C@H]2CC(C)C(=O)O)NC(c2nccs2)=N[C@H]1c1ccc(F)cc1Br (stereo partly shown) [Example 8] | 4960 |
| CCOC(=O)C1=C(CN2CC(F)(F)C[C@H]2C(C)CC(=O)O)NC(c2nccs2)=N[C@H]1c1ccc(F)cc1Br (stereo partly shown) [Example 9] | 4860 |
| CCOC(=O)C1=C(CN2CC(F)C(C)(C)C2CCC(=O)O)NC(c2nccs2)=N[C@H]1c1ccc(F)cc1Br (stereo partly shown) [Example 39] | 12500 |
| CCOC(=O)C1=C(CN2CC(F)(F)C[C@H]2CCC(=O)O)NC(c2nccs2)=N[C@H]1c1ccc(F)cc1Br [Example 6] | 4840 |
